TEST SYSTEM: human cloned 5-HT2A receptor, expressed in L929 cells (Homo sapiens)
Construct: expressed in transfected cells; host or cells: L929 cells
Sequence (P28223 whole entry): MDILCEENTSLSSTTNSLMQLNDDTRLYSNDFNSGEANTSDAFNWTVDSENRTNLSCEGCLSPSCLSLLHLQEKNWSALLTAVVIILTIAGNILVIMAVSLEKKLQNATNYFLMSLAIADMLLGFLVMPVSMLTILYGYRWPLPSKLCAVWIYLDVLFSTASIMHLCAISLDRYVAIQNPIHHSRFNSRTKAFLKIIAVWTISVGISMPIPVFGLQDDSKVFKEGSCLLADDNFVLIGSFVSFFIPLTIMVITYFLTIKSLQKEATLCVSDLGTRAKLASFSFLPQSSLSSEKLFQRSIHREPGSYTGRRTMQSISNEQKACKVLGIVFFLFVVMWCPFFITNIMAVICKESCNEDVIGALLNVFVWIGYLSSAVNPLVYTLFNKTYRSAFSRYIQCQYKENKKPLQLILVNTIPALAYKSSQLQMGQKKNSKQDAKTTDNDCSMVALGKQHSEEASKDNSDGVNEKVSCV
TEST DETAILS: In vitro binding affinity for 5-HT2A receptor ([125I]R91150 radioligand binding)
CONDITION DESCRIPTION: human cloned 5-HT2A receptor in L929 cells, [125I]R91150; read-out: 5-HT2A pIC50 (converted)
Measured log10 of IC50 accompanies every entry in the list below.
ENDPOINT NAME: log10 of IC50 (log10 of the value in nM)

COMPOUND | TEST SYSTEM | log10 of IC50
N#CCCC1CCCN(CC2CC3c4ccccc4Cc4ccc(F)cc4C3O2)C1 (mixture of isomers) | human cloned 5-HT2A receptor, expressed in L929 cells (Homo sapiens) | 0.50
Fc1ccc2c(c1)C1OC(CN3CCN(c4nc5ccccc5s4)CC3)CC1c1ccccc1C2 (stereo not drawn) | human cloned 5-HT2A receptor, expressed in L929 cells (Homo sapiens) | 1.24
O=C(OC1CCN(CC2CC3c4ccccc4Cc4ccc(F)cc4C3O2)C1)C1CC1 (mixture of isomers) | human cloned 5-HT2A receptor, expressed in L929 cells (Homo sapiens) | -0.04
N#Cc1cccc(OC2CCN(CC3CC4c5ccccc5Cc5ccc(F)cc5C4O3)C2)c1 (mixture of isomers) | human cloned 5-HT2A receptor, expressed in L929 cells (Homo sapiens) | 0.86
Fc1ccc2c(c1)C1OC(CN3CCN(c4nc5ccccc5[nH]4)CC3)CC1c1ccccc1C2 (stereo not drawn) | human cloned 5-HT2A receptor, expressed in L929 cells (Homo sapiens) | -0.60
N#Cc1ccc(C(=O)NC2CCN(CC3CC4c5ccccc5Cc5ccc(F)cc5C4O3)CC2)cc1 (stereo not drawn) | human cloned 5-HT2A receptor, expressed in L929 cells (Homo sapiens) | 0.18
OCC1CCCCN1CC1CC2c3ccccc3Cc3ccc(F)cc3C2O1 (mixture of isomers) | human cloned 5-HT2A receptor, expressed in L929 cells (Homo sapiens) | 1.22
O=C(C1CC1)N1CCN(C[C@H]2C[C@@H]3c4ccccc4Cc4ccc(F)cc4[C@@H]3O2)CC1 | human cloned 5-HT2A receptor, expressed in L929 cells (Homo sapiens) | 0.35
CCC(C)(C)NC(=O)N1CCN(CC2CC3c4ccccc4Cc4ccc(F)cc4C3O2)CC1 (stereo not drawn) | human cloned 5-HT2A receptor, expressed in L929 cells (Homo sapiens) | 0.21
COc1cccc(OC2CCN(CC3CC4c5ccccc5Cc5ccc(F)cc5C4O3)C2)c1 (mixture of isomers) | human cloned 5-HT2A receptor, expressed in L929 cells (Homo sapiens) | 0.99
O=C(NC1CC1)N1CCN(CC2CC3c4ccccc4Cc4ccc(F)cc4C3O2)CC1 (stereo not drawn) | human cloned 5-HT2A receptor, expressed in L929 cells (Homo sapiens) | -0.41
